Value source: patent US20250034210A1

Target sequence: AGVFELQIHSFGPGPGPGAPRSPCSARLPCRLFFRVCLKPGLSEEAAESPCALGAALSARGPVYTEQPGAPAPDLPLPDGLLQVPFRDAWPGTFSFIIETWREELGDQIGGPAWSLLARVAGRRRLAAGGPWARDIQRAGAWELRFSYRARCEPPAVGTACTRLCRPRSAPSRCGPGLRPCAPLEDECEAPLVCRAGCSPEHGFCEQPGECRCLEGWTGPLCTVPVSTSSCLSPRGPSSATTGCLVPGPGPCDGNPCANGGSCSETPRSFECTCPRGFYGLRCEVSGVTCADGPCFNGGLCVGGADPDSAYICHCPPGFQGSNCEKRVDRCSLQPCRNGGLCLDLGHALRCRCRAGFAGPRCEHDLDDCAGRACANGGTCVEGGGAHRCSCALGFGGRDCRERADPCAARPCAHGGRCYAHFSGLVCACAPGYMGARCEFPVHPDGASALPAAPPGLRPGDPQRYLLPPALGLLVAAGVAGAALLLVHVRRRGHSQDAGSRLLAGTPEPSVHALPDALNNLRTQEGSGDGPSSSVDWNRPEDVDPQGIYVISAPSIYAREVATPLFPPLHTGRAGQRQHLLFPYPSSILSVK
pKd: −log10 of the molar value. *1 amine or outer side, *2 acyl side, *3 side chain or, on linkers, in order; H or OH if unused. Where a SMILES comes first, the peptide text is derived from it. Bridges are numbered along the chain shown (N, C = ends). [ ]: non-standard residue; d: D form. The star is where a group is joined. DOTA = O=C(O)CN1CCN(CC(=O)O)CCN(CC(=O)*)CCN(CC(=O)O)CC1; Trp(5-F) = N[C@@H](Cc1c[nH]c2ccc(F)cc12)C(=O)O; X1 = O=C(C[C@H]1CC[C@H](N[*:1])CC1)[*:2]; Ahx = NCCCCCC(=O)O
Each record here notes measured pKd.

molecule="CC[C@H](C)[C@H](NC(=O)[C@@H](NC(=O)[C@H](Cc1c[nH]c2ccccc12)NC(=O)CCCCCNC(=O)CN1CCN(CC(=O)O)CCN(CC(=O)O)CCN(CC(=O)O)CC1)[C@@H](C)O)C(=O)N[C@H]1CSSC[C@@H](C(=O)N[C@@H](Cc2c[nH]c3ccc(F)cc23)C(=O)N2CCC[C@H]2C(N)=O)NC(=O)[C@H](CC(=O)O)NC(=O)[C@H](Cc2cnc[nH]2)NC(=O)[C@H](Cc2c[nH]c3ccccc23)NC(=O)[C@H](CC(N)=O)NC(=O)[C@H](CC(N)=O)NC1=O [compound 60] ({DOTA-Ahx}-WTICNNWHDC[Trp(5-F)]P-NH2; disulfide 4-10)" reading="7.00 to 8.00"

Note: attention shifts to another entry.
stdin: // pKd lookup, key: CC[C@H](C)[C@H](NC(=O)[C@@H](NC(=O)[C@H](Cc1c[nH]c2ccccc12)NC(=O)C[C@H]1CC[C@H](NC(=O)CN2CCN(CC(=O)O)CCN(CC(=O)O)CCN(CC(=O)O)CC2)CC1)[C@@H](C)O)C(=O)N[C@H]1CSSC[C@@H](C(=O)N[C@@H](Cc2c[nH]c3ccccc23)C(=O)N2CCC[C@H]2C(N)=O)NC(=O)[C@H](CC(=O)O)NC(=O)[C@H](Cc2cnc[nH]2)NC(=O)[C@H](Cc2c[nH]c3ccccc23)NC(=O)[C@H](CC(N)=O)NC(=O)[C@H](CC(N)=O)NC1=O [compound 19] ({DOTA}-[X1]WTICNNWHDCWP-NH2; disulfide 5-11)
stdout: 7.00 to 8.00
